melting point overview

COMPOUND: Cn1c(CC(=O)O)c(C(=O)O)c(Br)c1C(=O)c1ccc(Cl)cc1
melting point: 261 to 263 °C
--
COMPOUND: Nc1cc(-n2cc(C(=O)O)c(=O)c3cc(F)c(NC4CC4)c(Cl)c32)c(F)cc1F
melting point: 141 to 143 °C
--
COMPOUND: Cn1nc(-c2ccccc2F)nc1-c1ccccc1C(F)(F)F
melting point: 104 to 107 °C
--
COMPOUND: NC(=O)Cn1ncc2c1CN=C(c1ccccc1)c1cc(Cl)ccc1-2
melting point: 218 to 219 °C
--
COMPOUND: CC(=O)OC1CSC(Oc2cncc(-c3ccc(C)c(F)c3)c2)C(OC(C)=O)C1OC(C)=O (centres undefined)
melting point: 159 °C

compound CC(=O)N(O)C(C)c1cccc(Nc2ccccc2-c2nnc(N)o2)c1Cl (centres undefined) , melting point observed: 142 to 146 °C

compound `CCOC(=O)CCCOc1nn2c(-c3ccc(OC)cc3)nnc2c2ccccc12` , melting point observed: 114 to 117 °C

compound CC(=O)NC(=O)NCC1CC2c3cccc4[nH]c(Br)c(c34)CC2N(C)C1 (centres undefined) , melting point observed: 210 to 212 °C

compound `CN(C)c1ccc(O)c(CNCCc2ccc(N=C(N)c3cccs3)cc2)c1` , melting point observed: 182 to 183 °C

* * *

RESULT_TYPE: melting point

COMPOUND: O=C(Nc1ccnn1-c1c(F)c(F)c(C(F)(F)F)c(F)c1F)C(Cl)Cl
RESULT_TYPE: melting point
ENDPOINT_VALUE: 112 to 114 °C

compound CCC12CCC3=C(CC(C)c4cc(OC)ccc43)C1=CCC21OCCO1 (stereo not given) , melting point observed: 116 to 119 °C

compound `NCCCCOc1cccc(CN2CCCCC2)c1` , melting point observed: 92 to 93 °C

compound `Nc1ccc(-c2cccc(C(F)(F)F)c2)nn1` , melting point observed: 138 to 139 °C

compound `COc1cc(C(=O)OC(C)(C)C)ccc1Cn1cc(C=O)c2ccc(C(=O)NCC3CCCC3)cc21` , melting point observed: 134 to 135 °C

* * *

RESULT_TYPE: melting point

MOLECULE: O=C1NC(O)(C(Cl)(Cl)Cl)NC1=O
melting point: 245 °C

molecule `COc1ccc(S(=O)(=O)NCc2ccco2)c2cc(C(C)=O)oc12` , melting point observed: 182 to 184 °C

molecule NC(=O)c1ccc(CCCNCC(O)COc2ccccc2)s1 (racemic) , melting point observed: 129 to 130 °C

molecule `CCN(CC)c1ccc(C(=NCCO[N+](=O)[O-])NC#N)cn1` , melting point observed: 119 °C

molecule `Cc1cc(-c2cc(C(F)(F)F)n3ncc(-c4ccccn4)c3n2)ccc1Cl` , melting point observed: 183 °C

* * *

RESULT_TYPE: melting point

COMPOUND: CC(C)Oc1ccc(CCCCOc2cc(CCC(=O)O)n(-c3ccccc3)n2)c(Oc2ncc(C(F)(F)F)cc2Cl)c1
RESULT_TYPE: melting point
ENDPOINT_VALUE: 75 to 77 °C

COMPOUND: COc1ccc(S(=O)(=O)CC(C)=CCOC(C)=O)cc1
RESULT_TYPE: melting point
ENDPOINT_VALUE: 54 to 56 °C

COMPOUND: N#Cc1ncccc1Oc1ccccc1Cl
RESULT_TYPE: melting point
ENDPOINT_VALUE: 90 to 92 °C

COMPOUND: Cc1ccc(C2CC(=O)C=C(N)C2)s1 (stereo unspecified)
RESULT_TYPE: melting point
ENDPOINT_VALUE: 172 to 173 °C

COMPOUND: Cc1cc(COc2c(Cl)cc(C=O)cc2Cl)oc(=O)c1
RESULT_TYPE: melting point
ENDPOINT_VALUE: 180 °C

compound `Clc1cccc(Oc2ccc(OCn3cnc(Cl)c3Cl)cc2)n1` , melting point observed: 94 to 98 °C

compound CC(=O)SC[C@H](NC(=O)OC(C)(C)C)C(=O)NC(CS)C(C)=O (stereo partly specified) , melting point observed: 111 to 113 °C

compound `CC(C)(C)c1nnc(N)n(N)c1=O` , melting point observed: 223 to 224 °C

compound `O=c1ccn(-c2cccc(C(F)(F)F)c2)nc1-c1ccnn1-c1ccccc1Cl` , melting point observed: 139 to 140 °C

compound Fc1ccc2[nH]cc(C3=CCC(N4CCC(Cc5ccccc5)CC4)CC3)c2c1 (stereo unspecified) , melting point observed: 72 to 74 °C

compound `O=C(O)Cn1c(-c2cc(Cl)ccn2)nc2cccnc21` , melting point observed: 218 to 220 °C

compound `COP(=O)(CC(=O)COc1ccc(Cl)cn1)OC` , melting point observed: 37 to 40 °C

compound `CC(=O)c1ccc(C#Cc2ccc(C(C)=O)s2)s1` , melting point observed: 214 °C

compound CCOC(=O)c1c2n(c3c(F)c(F)c(F)cc3c1=O)C(C)S2 (stereo unspecified) , melting point observed: 206 to 210 °C

compound CN(C)CCNC(=O)N1CCC(Sc2ccc(Cl)cc2)C1 (stereo unspecified) , melting point observed: 97 to 98.5 °C

compound `Oc1ccc(-c2ccc(-c3ccc(F)cc3)nc2-c2ccc(OCCN3CCCCC3)cc2)cc1` , melting point observed: 194 to 195 °C

compound `Fc1ccc(Nc2ncnc3ccc(-c4cccs4)cc23)cc1Cl` , melting point observed: 205 to 208 °C

compound `CCCc1nccn1S(=O)(=O)c1c[nH]cn1` , melting point observed: 163 to 164 °C

compound CCOC(=O)Cc1ccc(NC(=O)C(COc2ccccc2)NS(=O)(=O)c2ccc(Br)cc2)cc1 (racemic) , melting point observed: 150 to 153 °C

compound CC(=O)OC(CF)c1sccc1S(N)(=O)=O (stereo unspecified) , melting point observed: 97 to 98 °C

compound `COc1cc(OCCOCc2ccccc2)cc2nc(-c3cc(C)nc(C)c3)[nH]c(=O)c12` , melting point observed: 178 to 180 °C

* * *

RESULT_TYPE: melting point

Examples from the recorded data:
COMPOUND: CC(C)(C)c1cc(CCc2cc(C(C)(C)C)c(O)c(C(C)(C)C)c2)cc(C(C)(C)C)c1O
ENDPOINT_VALUE: 170 to 171 °C
--
COMPOUND: COc1cc2ncnc(N3CCc4cc(OCc5ccccc5)ccc43)c2cc1OC
ENDPOINT_VALUE: 181 to 182 °C
--
COMPOUND: O=C(O)c1cc([N+](=O)[O-])ccc1NCc1ccccc1
ENDPOINT_VALUE: 238 to 248 °C
--
COMPOUND: CCCn1ncnc1COc1nc2c(nnn2-c2ccccc2)c2ccccc12
ENDPOINT_VALUE: 154 to 156 °C
--
COMPOUND: CCCOC(=NNC(=O)OC)OCCC
ENDPOINT_VALUE: 38.1 to 38.3 °C

Here is the next item to consider.
compound `Cc1nc(-c2cccc(Cl)c2)c(CCC(=O)O)o1` , melting point observed: 159 to 160 °C

* * *

melting point overview

COMPOUND: COc1cc(-c2nccn2N=Cc2ccc(N(C)C)cc2)cc(OC)c1OC
melting point: 232 °C

compound CN1CCC(c2c[nH]c3ccc([N+](=O)[O-])cc23)C(F)C1 (stereo not given) , melting point observed: 105 to 107 °C

compound CCOC(=O)C(C)c1ccc(-c2cn3cccnc3n2)cc1 (stereo not given) , melting point observed: 171 to 173 °C

compound COC1C(O)C(CO)OC1n1cc(C)c(=O)[nH]c1=O (stereo not given) , melting point observed: 192 to 193 °C

compound `COc1ccc2nc3cc(Cl)ccc3c(Oc3ccc(Cl)cc3)c2c1` , melting point observed: 152 to 153 °C

compound COC(=O)C1=C(C)NC(C)=C(C(=O)OCCN(C)C)C1c1cccc2nonc12 (stereo not given) , melting point observed: 99 °C

compound Cc1cccc(C2CNCCN2C(=O)N(c2ccccc2)c2ccccc2)c1 (stereo not given) , melting point observed: 119 to 121 °C

compound `CNC(=O)Oc1ccc(NC(=O)C(Cl)Cl)c(C)c1` , melting point observed: 199 to 201 °C

compound `CC(C)(C)OC(=O)N(Cc1ccc(C2CCCCC2)cc1)c1nc(Oc2ccc(F)cc2)c2ncn(CC(=O)O)c2n1` , melting point observed: 119 to 133 °C

compound `CC(=O)CC(=O)N1C(=N)CCN=C(c2ccccc2)c2cc(Cl)ccc21` , melting point observed: 149 to 150 °C

* * *

RESULT_TYPE: melting point

COMPOUND: CCSc1nc(-c2ccco2)c2ncn(Cc3ccc(OC)cc3)c2n1
RESULT_TYPE: melting point
ENDPOINT_VALUE: 116 to 117 °C
--
COMPOUND: CC(C)c1nn2ccccc2c1S(=O)(=O)c1ccc(O)cc1
RESULT_TYPE: melting point
ENDPOINT_VALUE: 146 °C
--
COMPOUND: CC(C)C(NC(=O)Cn1cccc(NC(=O)Oc2ccc(Cl)cc2)c1=O)C(=O)C(F)(F)F (stereo not given)
RESULT_TYPE: melting point
ENDPOINT_VALUE: 137 to 139 °C

compound `C[C@]12CCC(=O)N[C@@H]1CCc1cc(-c3nccs3)ccc12` , melting point observed: 206 to 207 °C

compound `Fc1ccc(N2CCN(Cc3cn4cc(Cl)ccc4n3)CC2)cc1` , melting point observed: 130 to 131 °C
